assay: self-splicing fitness, log relative to wild type (ln ratio); higher = more splicing; Tetrahymena group I intron in knt gene, E. coli kanamycin selection, DiMSum; sequences stand for … in CUCUCU…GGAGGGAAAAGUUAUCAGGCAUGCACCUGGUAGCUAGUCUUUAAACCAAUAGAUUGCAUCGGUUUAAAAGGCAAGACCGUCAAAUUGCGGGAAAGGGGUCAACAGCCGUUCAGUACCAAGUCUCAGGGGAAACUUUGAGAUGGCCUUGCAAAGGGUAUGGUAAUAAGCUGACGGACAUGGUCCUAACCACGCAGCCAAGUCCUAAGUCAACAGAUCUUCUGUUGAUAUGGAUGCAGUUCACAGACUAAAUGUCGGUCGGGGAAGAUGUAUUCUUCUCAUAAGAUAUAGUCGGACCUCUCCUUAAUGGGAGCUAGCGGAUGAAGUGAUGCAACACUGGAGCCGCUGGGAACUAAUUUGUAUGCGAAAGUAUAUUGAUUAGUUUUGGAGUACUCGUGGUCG; settings: 30 °C;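 also: selection with 25 µg/mL kanamycin versus none on LB agar overnight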
Threshold check on self-splicing fitness (ln): at or above -3 gives rule met, strictly below gives rule not met.

[ask] Does the reported self-splicing fitness (ln) for AACGAGCAAUAUUACGAUCU fall at or above the -3 mark?
[reply] rule met

[ask] Does the reported self-splicing fitness (ln) for AGACAGCAAUAUUACGCGAG fall at or above the -3 mark?
[reply] rule met

[ask] Does the reported self-splicing fitness (ln) for UGAAAGCAAUAUUACGACCA fall at or above the -3 mark?
[reply] rule met

[ask] Does the reported self-splicing fitness (ln) for UUCGAGCAAUAUUACGAUAG fall at or above the -3 mark?
[reply] rule met

[ask] Does the reported self-splicing fitness (ln) for ACAAAGCAAUAUUACGCUAU fall at or above the -3 mark?
[reply] rule met

[ask] Does the reported self-splicing fitness (ln) for CUAAAGCAAUAUUACGUACG fall at or above the -3 mark?
[reply] rule met

[ask] Does the reported self-splicing fitness (ln) for CCCCAGCAAUAUUACGAUAU fall at or above the -3 mark?
[reply] rule not met

[ask] Does the reported self-splicing fitness (ln) for CAUGAGCAAUAUUACGGUUC fall at or above the -3 mark?
[reply] rule not met

[ask] Does the reported self-splicing fitness (ln) for AGCCAGCAAUAUUACGUCGA fall at or above the -3 mark?
[reply] rule not met

[ask] Does the reported self-splicing fitness (ln) for CACUAGCAAUAUUACGGAGU fall at or above the -3 mark?
[reply] rule not met

[ask] Does the reported self-splicing fitness (ln) for UGCCAGCAAUAUUACGCUUC fall at or above the -3 mark?
[reply] rule not met

[ask] Does the reported self-splicing fitness (ln) for CAACAGCAAUAUUACGCAAA fall at or above the -3 mark?
[reply] rule not met

[ask] Does the reported self-splicing fitness (ln) for AAAGAGCAAUAUUACGUUCA fall at or above the -3 mark?
[reply] rule met

[ask] Does the reported self-splicing fitness (ln) for AGCAAGCAAUAUUACGCGAU fall at or above the -3 mark?
[reply] rule not met

[ask] Does the reported self-splicing fitness (ln) for UUCAAGCAAUAUUACGACAC fall at or above the -3 mark?
[reply] rule met

[ask] Does the reported self-splicing fitness (ln) for GAUAAGCAAUAUUACGUUAU fall at or above the -3 mark?
[reply] rule met

* * *

assay: self-splicing fitness, log relative to wild type (ln ratio); higher = more splicing; Tetrahymena group I intron in knt gene, E. coli kanamycin selection, DiMSum; sequences stand for … in CUCUCU…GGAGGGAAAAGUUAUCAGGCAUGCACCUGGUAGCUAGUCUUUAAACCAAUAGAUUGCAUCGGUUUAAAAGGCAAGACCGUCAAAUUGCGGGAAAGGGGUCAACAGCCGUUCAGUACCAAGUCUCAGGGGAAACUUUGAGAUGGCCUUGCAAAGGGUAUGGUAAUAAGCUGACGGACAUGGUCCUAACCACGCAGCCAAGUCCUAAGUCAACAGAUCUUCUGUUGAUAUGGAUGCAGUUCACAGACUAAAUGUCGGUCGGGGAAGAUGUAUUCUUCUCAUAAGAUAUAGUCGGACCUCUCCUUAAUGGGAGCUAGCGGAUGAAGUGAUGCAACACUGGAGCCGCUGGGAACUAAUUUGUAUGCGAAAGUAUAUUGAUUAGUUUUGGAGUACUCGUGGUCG; conditions: 37 °C
Threshold check on self-splicing fitness (ln): at or above -1 gives 1 (yes), strictly below gives 0 (no).

[ask] Does the reported self-splicing fitness (ln) for CUAAAGCAAUAUUACGUCGU fall at or above the -1 mark?
[reply] 0 (no)

[ask] Does the reported self-splicing fitness (ln) for ACGAAGCAAUAUUACGUAUC fall at or above the -1 mark?
[reply] 0 (no)

[ask] Does the reported self-splicing fitness (ln) for GGCAAGCAAUAUUACGUGUA fall at or above the -1 mark?
[reply] 1 (yes)

[ask] Does the reported self-splicing fitness (ln) for GUUGAGCAAUAUUACGGUUG fall at or above the -1 mark?
[reply] 0 (no)

[ask] Does the reported self-splicing fitness (ln) for CUGGAGCAAUAUUACGUAGG fall at or above the -1 mark?
[reply] 0 (no)

[ask] Does the reported self-splicing fitness (ln) for UGUAAGCAAUAUUACGGCAU fall at or above the -1 mark?
[reply] 1 (yes)

[ask] Does the reported self-splicing fitness (ln) for CCUUAGCAAUAUUACGUUGU fall at or above the -1 mark?
[reply] 0 (no)

[ask] Does the reported self-splicing fitness (ln) for GCGGAGCAAUAUUACGUAAU fall at or above the -1 mark?
[reply] 0 (no)

[ask] Does the reported self-splicing fitness (ln) for AUAUAGCAAUAUUACGCACC fall at or above the -1 mark?
[reply] 1 (yes)

[ask] Does the reported self-splicing fitness (ln) for UACAAGCAAUAUUACGUCCG fall at or above the -1 mark?
[reply] 1 (yes)

[ask] Does the reported self-splicing fitness (ln) for GUAUAGCAAUAUUACGGCGC fall at or above the -1 mark?
[reply] 1 (yes)

[ask] Does the reported self-splicing fitness (ln) for CAAUAGCAAUAUUACGUUAG fall at or above the -1 mark?
[reply] 1 (yes)

[ask] Does the reported self-splicing fitness (ln) for UAGAAGCAAUAUUACGCCUA fall at or above the -1 mark?
[reply] 1 (yes)

[ask] Does the reported self-splicing fitness (ln) for AACCAGCAAUAUUACGGAUA fall at or above the -1 mark?
[reply] 1 (yes)

[ask] Does the reported self-splicing fitness (ln) for CAGCAGCAAUAUUACGCGGA fall at or above the -1 mark?
[reply] 0 (no)

[ask] Does the reported self-splicing fitness (ln) for UACUAGCAAUAUUACGCCUU fall at or above the -1 mark?
[reply] 1 (yes)

[ask] Does the reported self-splicing fitness (ln) for GGUGAGCAAUAUUACGUUCG fall at or above the -1 mark?
[reply] 0 (no)

[ask] Does the reported self-splicing fitness (ln) for GCAAAGCAAUAUUACGCAAA fall at or above the -1 mark?
[reply] 0 (no)

[ask] Does the reported self-splicing fitness (ln) for AACCAGCAAUAUUACGGGUG fall at or above the -1 mark?
[reply] 1 (yes)

[ask] Does the reported self-splicing fitness (ln) for CGACAGCAAUAUUACGGGGU fall at or above the -1 mark?
[reply] 0 (no)

[ask] Does the reported self-splicing fitness (ln) for UACGAGCAAUAUUACGCGUU fall at or above the -1 mark?
[reply] 0 (no)

[ask] Does the reported self-splicing fitness (ln) for GCGAAGCAAUAUUACGGACA fall at or above the -1 mark?
[reply] 1 (yes)

[ask] Does the reported self-splicing fitness (ln) for UCCGAGCAAUAUUACGCGUA fall at or above the -1 mark?
[reply] 1 (yes)

[ask] Does the reported self-splicing fitness (ln) for AAGUAGCAAUAUUACGGCCG fall at or above the -1 mark?
[reply] 1 (yes)

[ask] Does the reported self-splicing fitness (ln) for UCAUAGCAAUAUUACGCGAG fall at or above the -1 mark?
[reply] 1 (yes)

[ask] Does the reported self-splicing fitness (ln) for CCCUAGCAAUAUUACGUAGA fall at or above the -1 mark?
[reply] 0 (no)

[ask] Does the reported self-splicing fitness (ln) for AGUGAGCAAUAUUACGAUAG fall at or above the -1 mark?
[reply] 0 (no)

[ask] Does the reported self-splicing fitness (ln) for GAGUAGCAAUAUUACGGCGA fall at or above the -1 mark?
[reply] 1 (yes)

[ask] Does the reported self-splicing fitness (ln) for ACACAGCAAUAUUACGCGAA fall at or above the -1 mark?
[reply] 0 (no)

[ask] Does the reported self-splicing fitness (ln) for GGCCAGCAAUAUUACGGUGC fall at or above the -1 mark?
[reply] 0 (no)

[ask] Does the reported self-splicing fitness (ln) for GCGAAGCAAUAUUACGCCGG fall at or above the -1 mark?
[reply] 1 (yes)

[ask] Does the reported self-splicing fitness (ln) for GUCCAGCAAUAUUACGACUA fall at or above the -1 mark?
[reply] 1 (yes)

[ask] Does the reported self-splicing fitness (ln) for CGGCAGCAAUAUUACGGUCG fall at or above the -1 mark?
[reply] 0 (no)

[ask] Does the reported self-splicing fitness (ln) for CCGUAGCAAUAUUACGAUCG fall at or above the -1 mark?
[reply] 1 (yes)

[ask] Does the reported self-splicing fitness (ln) for UCCGAGCAAUAUUACGGACG fall at or above the -1 mark?
[reply] 0 (no)

[ask] Does the reported self-splicing fitness (ln) for GGGUAGCAAUAUUACGCCUG fall at or above the -1 mark?
[reply] 1 (yes)

[ask] Does the reported self-splicing fitness (ln) for CGACAGCAAUAUUACGACUC fall at or above the -1 mark?
[reply] 0 (no)

[ask] Does the reported self-splicing fitness (ln) for AUACAGCAAUAUUACGACGA fall at or above the -1 mark?
[reply] 1 (yes)

[ask] Does the reported self-splicing fitness (ln) for UGAAAGCAAUAUUACGUUGC fall at or above the -1 mark?
[reply] 0 (no)

[ask] Does the reported self-splicing fitness (ln) for CAGAAGCAAUAUUACGGGCA fall at or above the -1 mark?
[reply] 0 (no)

[ask] Does the reported self-splicing fitness (ln) for AGAAAGCAAUAUUACGCCUG fall at or above the -1 mark?
[reply] 1 (yes)

[ask] Does the reported self-splicing fitness (ln) for UGCCAGCAAUAUUACGUUGC fall at or above the -1 mark?
[reply] 0 (no)

[ask] Does the reported self-splicing fitness (ln) for UAUAAGCAAUAUUACGCUAC fall at or above the -1 mark?
[reply] 0 (no)

[ask] Does the reported self-splicing fitness (ln) for AGAAAGCAAUAUUACGUUUC fall at or above the -1 mark?
[reply] 0 (no)

[ask] Does the reported self-splicing fitness (ln) for UGAAAGCAAUAUUACGACGU fall at or above the -1 mark?
[reply] 1 (yes)

[ask] Does the reported self-splicing fitness (ln) for AGACAGCAAUAUUACGUACG fall at or above the -1 mark?
[reply] 1 (yes)

[ask] Does the reported self-splicing fitness (ln) for GUUAAGCAAUAUUACGGCUG fall at or above the -1 mark?
[reply] 1 (yes)

[ask] Does the reported self-splicing fitness (ln) for UUUCAGCAAUAUUACGAACG fall at or above the -1 mark?
[reply] 1 (yes)

[ask] Does the reported self-splicing fitness (ln) for CAAAAGCAAUAUUACGCGAU fall at or above the -1 mark?
[reply] 0 (no)

[ask] Does the reported self-splicing fitness (ln) for CAUGAGCAAUAUUACGAGCA fall at or above the -1 mark?
[reply] 0 (no)

[ask] Does the reported self-splicing fitness (ln) for UCUCAGCAAUAUUACGGGUC fall at or above the -1 mark?
[reply] 0 (no)

[ask] Does the reported self-splicing fitness (ln) for ACCCAGCAAUAUUACGGAUA fall at or above the -1 mark?
[reply] 1 (yes)

[ask] Does the reported self-splicing fitness (ln) for GUUCAGCAAUAUUACGGCGA fall at or above the -1 mark?
[reply] 1 (yes)

[ask] Does the reported self-splicing fitness (ln) for CGGGAGCAAUAUUACGCGGU fall at or above the -1 mark?
[reply] 0 (no)

[ask] Does the reported self-splicing fitness (ln) for CACAAGCAAUAUUACGAUCC fall at or above the -1 mark?
[reply] 0 (no)

[ask] Does the reported self-splicing fitness (ln) for GACAAGCAAUAUUACGCUGG fall at or above the -1 mark?
[reply] 0 (no)

[ask] Does the reported self-splicing fitness (ln) for ACUGAGCAAUAUUACGAAUG fall at or above the -1 mark?
[reply] 0 (no)

[ask] Does the reported self-splicing fitness (ln) for CCCAAGCAAUAUUACGUAUU fall at or above the -1 mark?
[reply] 0 (no)

[ask] Does the reported self-splicing fitness (ln) for CCAGAGCAAUAUUACGAUAU fall at or above the -1 mark?
[reply] 0 (no)

[ask] Does the reported self-splicing fitness (ln) for GGCUAGCAAUAUUACGAUGC fall at or above the -1 mark?
[reply] 1 (yes)

[ask] Does the reported self-splicing fitness (ln) for GCAUAGCAAUAUUACGUCGU fall at or above the -1 mark?
[reply] 0 (no)

[ask] Does the reported self-splicing fitness (ln) for UUCAAGCAAUAUUACGCCAG fall at or above the -1 mark?
[reply] 1 (yes)

[ask] Does the reported self-splicing fitness (ln) for CUCCAGCAAUAUUACGUGGU fall at or above the -1 mark?
[reply] 0 (no)

[ask] Does the reported self-splicing fitness (ln) for UACCAGCAAUAUUACGGAUC fall at or above the -1 mark?
[reply] 1 (yes)

[ask] Does the reported self-splicing fitness (ln) for UAAAAGCAAUAUUACGUCUG fall at or above the -1 mark?
[reply] 1 (yes)

[ask] Does the reported self-splicing fitness (ln) for UACUAGCAAUAUUACGUUAG fall at or above the -1 mark?
[reply] 0 (no)

[ask] Does the reported self-splicing fitness (ln) for ACAUAGCAAUAUUACGCAGC fall at or above the -1 mark?
[reply] 0 (no)
